Target: T1, HLA-A*02:01 (peptide-receptive MHC class I monomer after UV cleavage of the UV-sensitive ligand) (human)
T1 construct: MHC monomers loaded by UV-ligand exchange and captured on streptavidin plates
Test: UV ligand-exchange ELISA; exchange yield grade (+ >=10%, ++ >=20%, +++ >=50%, ++++ >=75%)
measured-quantity: peptide exchange yield

A selection of reference data follows.
KLMNIQQQL [KLMNIQQQL (SEQ ID NO: 154)]    50 to 75%
KLLGSLQLL [KLLGSLQLL (SEQ ID NO: 93)]    ≥ 75%
TLHAVDVTL [TLHAVDVTL (SEQ ID NO: 143)]    50 to 75%
ALLEGVKNV [ALLEGVKNV (SEQ ID NO: 43)]    50 to 75%
SLFEASQQL [SLFEASQQL (SEQ ID NO: 129)]    50 to 75%

Q. Name the recorded peptide exchange yield for GLLLLVPLL [GLLLLVPLL (SEQ ID NO: 12)] .
A. 50 to 75%

Q. Name the recorded peptide exchange yield for SLSFVSPSL [SLSFVSPSL (SEQ ID NO: 309)] .
A. 50 to 75%

Q. Name the recorded peptide exchange yield for RLCDIVVNV [RLCDIVVNV (SEQ ID NO: 204)] .
A. 20 to 50%

Q. Name the recorded peptide exchange yield for VLQNVAFSV [VLQNVAFSV (SEQ ID NO: 269)] .
A. ≥ 75%

Q. Name the recorded peptide exchange yield for VLGNALEGV [VLGNALEGV (SEQ ID NO: 37)] .
A. 50 to 75%

Q. Name the recorded peptide exchange yield for TLLAFPLLL [TLLAFPLLL (SEQ ID NO: 69)] .
A. ≥ 75%

Q. Name the recorded peptide exchange yield for ALTGLQFQL [ALTGLQFQL (SEQ ID NO: 135)] .
A. 50 to 75%

Q. Name the recorded peptide exchange yield for YLYEAEEATTL [YLYEAEEATTL (SEQ ID NO: 177)] .
A. 50 to 75%

Q. Name the recorded peptide exchange yield for NLLGMIFSM [NLLGMIFSM (SEQ ID NO: 7)] .
A. ≥ 75%

Q. Name the recorded peptide exchange yield for AQVALVNEV [AQVALVNEV (SEQ ID NO: 306)] .
A. 50 to 75%

Q. Name the recorded peptide exchange yield for ILQNGLETL [ILQNGLETL (SEQ ID NO: 297)] .
A. 50 to 75%
